Entry source: ChEMBL document CHEMBL1135012

assay: The half-life period for the release of paclitaxel after cyclization was determined for the compound; format: ADME
Below is a list of entries, each paired with its recorded T1/2 value.
measured.parameter: T1/2 (min)

>>> value("CC(=O)O[C@H]1C(=O)[C@@]2(C)[C@H]([C@H](OC(=O)c3ccccc3)[C@]3(O)C[C@H](OC(=O)[C@H](OC(=O)C(C)(C)CCSSC4OC(CO)C(O)C(O)C4O)C(NC(=O)c4ccccc4)c4ccccc4)C(C)=C1C3(C)C)[C@]1(OC(C)=O)CO[C@@H]1C[C@@H]2O (some centres undefined)")
12
>>> value("CC(=O)O[C@H]1C(=O)[C@@]2(C)[C@H]([C@H](OC(=O)c3ccccc3)[C@]3(O)C[C@H](OC(=O)[C@H](OC(=O)C(C)(C)CCSSc4ccccn4)[C@@H](NC(=O)c4ccccc4)c4ccccc4)C(C)=C1C3(C)C)[C@]1(OC(C)=O)CO[C@@H]1C[C@@H]2O")
4
>>> value("CC(=O)O[C@H]1C(=O)[C@@]2(C)[C@H]([C@H](OC(=O)c3ccccc3)[C@]3(O)C[C@H](OC(=O)[C@H](OC(=O)C(C)(C)CCSSC[C@H](C)C(=O)N4CCC[C@@H]4C(=O)O)[C@@H](NC(=O)c4ccccc4)c4ccccc4)C(C)=C1C3(C)C)[C@]1(OC(C)=O)CO[C@@H]1C[C@@H]2O")
25
